- Test system: Saccharomyces cerevisiae
- assay_protocol: protein stability index of tFT-peptide fusion (C-terminal peptide) (PSI (0-1 scale)); higher = more stable (slower turnover)
- condition_notes: genetic background: wild type; temperature: 30 C
property_label: protein stability index
Would you mind answering with just the numeric figure?

[[record]]
monomer_sequence = "KHKAQQGSHGPQ"
property_label = "protein stability index"
value = 0.616

[[record]]
monomer_sequence = "EGTPLTIQRIGE"
property_label = "protein stability index"
value = 0.666


Request the reported protein stability index associated with RLLLPSTLLPPR
0.761

###

- System: Saccharomyces cerevisiae
- assay_protocol: protein stability index of tFT-peptide fusion (C-terminal peptide) (PSI (0-1 scale)); higher = more stable (slower turnover)
- condition_notes: genetic background: das1 deletion; temperature: 30 C
property_label: protein stability index
Would you mind answering with just the numeric figure?

Worked cases, protein stability index given:
[[record]]
monomer_sequence = "KDVIEEALSRFG [UTP7 C-terminal 12 aa]"
property_label = "protein stability index"
value = 0.704

[[record]]
monomer_sequence = "TNQASPHHIFRG [ORA1 C-terminal 12 aa]"
property_label = "protein stability index"
value = 0.702

[[record]]
monomer_sequence = "IAEGKSVGIIGA [HXK2 C-terminal 12 aa]"
property_label = "protein stability index"
value = 0.694

[[record]]
monomer_sequence = "TDTTLIYDIDLE [SPT8 C-terminal 12 aa]"
property_label = "protein stability index"
value = 0.709

[[record]]
monomer_sequence = "QDKRSSQAIDVL [MMS21 C-terminal 12 aa]"
property_label = "protein stability index"
value = 0.688


API: the following record is the query input.
Request the reported protein stability index associated with GNSGGSNNSSWW [DED1 C-terminal 12 aa]
0.715
